Values from paper PMC11062922

Exercise: state measured potency estimated from few doses for each of the molecules provided.
Tested on: CSNK1E
Design: species or system human, MV4-11 + K-562 + COLO205 + SK-N-BE2 + OVCAR-8
measurementParameters: read-out: apparent Kd; compound concentrations:100 nM and 1000 nM (sheet 'Samples'); n = 1
Give bare numbers, in nM.

Consider the reported potency estimated from few doses for these molecules:
molecule | potency estimated from few doses (nM)
Cc1cnc(Nc2ccc(F)cc2Cl)nc1-c1c[nH]c(C(=O)N[C@H](CO)c2cccc(Cl)c2)c1 [Vertex11e] | 1220
Cl.c1ccc(-c2nc3n(c2-c2ccc4c(c2)OCO4)CCC3)nc1 | 262
Cc1occc1-c1nc(N)c(OC[C@@H](N)Cc2c[nH]c3ccccc23)cc1-c1cc2c(C)n[nH]c2cn1 [GSK1660450B] | 144

Now let's try a different one.
[Q] Which value of potency estimated from few doses has been reported for Cc1cc(Nc2nc(-c3cccc(C)n3)nc3ccccc23)ccn1 [GW872411X] in the records?
[A] 1700
